All values here come from ChEMBL document CHEMBL4393689.

System: MCF-10A
Assay: Cytotoxicity against human MCF10A cells assessed as reduction in cell viability incubated for 48 hrs by MTT assay
Format: cell-based
Quantity: pIC50
pIC50 here: minus log base 10 of the concentration, concentration in moles per litre.

1. CCN(CC)c1ccc2cc(C(=O)N3CCN(C(=O)C4=Cc5c(Br)cccc5S4(=O)=O)CC3)c(=O)oc2c1 = 4.84

Query string: Bench note: what pIC50 did O=[N+]([O-])c1ccc2c(c1)S(=O)(=O)C=C2 show?
Result string: 5.21

###

Measured pIC50 values are reported for all entries that follow.
Test system: L02
Assay: Cytotoxicity against human LO2 cells assessed as reduction in cell viability incubated for 48 hrs by MTT assay
Format: cell-based
Settings: L02, 48 h
Field pIC50 (float): negative decimal logarithm of the concentration in molar.

Query string: Reported pIC50 for O=[N+]([O-])c1ccc2c(c1)S(=O)(=O)C=C2 : what is it?
Result string: 5.28

Query string: Any idea what its pIC50 is? The molecule is CCN(CC)c1ccc2cc(C(=O)N3CCN(C(=O)C4=Cc5c(Br)cccc5S4(=O)=O)CC3)c(=O)oc2c1
Result string: 4.45

###

Listed here: items and their measured selectivity ratio.
Test: Selectivity index, ratio of IC50 for human L02 cells to IC50 for human HepG2 cells
Assay type: toxicity
Conditions: L02 cells versus HepG2 cells, read-out: Ratio IC50
Give a plain numeric answer without units written out.

Query string: Param item = O=[N+]([O-])c1ccc2c(c1)S(=O)(=O)C=C2 ; retrieve measured selectivity ratio.
Result string: 1.5

Query string: Tell me the measured selectivity ratio of CCN(CC)c1ccc2cc(C(=O)N3CCN(C(=O)C4=Cc5c(Br)cccc5S4(=O)=O)CC3)c(=O)oc2c1 , please.
Result string: 12.4
